System: Rhinovirus HGP
experimentNotes: Antiviral activity: inhibition of viral cytopathogenic effect (C.P.E.) in HeLa cell culture
Format: cell-based
experimentalParameters: Enterovirus, HeLa, 48 h, concentration inhibiting C.P.E. by 50% versus control culture; HeLa cells, 2 days at 33°C; read-out: IC50
experimentalReadout: IC50 (µg/mL)
Answers are plain numbers, in µg/mL.

Worked cases, IC50 given:
| structureSmilesString | system | experimentalReadout | unitOfMeasure | reportedValue |
| --- | --- | --- | --- | --- |
| COc1ccc(CNC(=O)c2c(O)cc(OC)cc2OC)cc1 | Rhinovirus HGP | IC50 | µg/mL | 0.002 |
| COc1ccc(CCC(=O)c2c(O)cc(SC)cc2OC)cc1 | Rhinovirus HGP | IC50 | µg/mL | 0.1 |
| COc1cc(O)c(C(=O)NCc2ccc[nH]2)c(OC)c1 | Rhinovirus HGP | IC50 | µg/mL | 2.7 |
| CCOc1cc(OC)c(C(=O)CCc2ccc(OC)cc2)c(OC(=O)c2ccccc2)c1 | Rhinovirus HGP | IC50 | µg/mL | 0.01 |
| CCOC(=O)Oc1cc(OCC)cc(OC)c1C(=O)CCc1ccc(OC)cc1 | Rhinovirus HGP | IC50 | µg/mL | 0.002 |
| COc1ccc(CNC(=O)c2c(OC)cc(OC)cc2O[C@@H]2O[C@H](CO)[C@@H](O)[C@H](O)[C@H]2O)cc1 | Rhinovirus HGP | IC50 | µg/mL | 2.7 |

For each entry beneath this line, provide reported IC50.
1. CCCCCCCCCCCCCCCCCC(=O)Oc1cc(OCC)cc(OC)c1C(=O)CCc1ccc(OC)cc1
2. CCOc1cc(OC)c(C(=O)CCc2ccc(OC)cc2)c(O[C@@H]2O[C@H](CO)[C@@H](O)[C@H](O)[C@H]2O)c1
3. CCCCOc1ccc(CNC(=O)c2c(O)cc(OC)cc2OC)cc1
4. COc1cc(O)c(C(=O)NCc2cccs2)c(OC)c1
5. COc1cc(O)c(C(=O)NCc2ccc(N(C)C)cc2)c(OC)c1
6. C=CCOc1ccc(CNC(=O)c2c(O)cc(OC)cc2OC)cc1
7. CCOC(=O)Oc1cc(OC)cc(OC)c1C(=O)NCc1ccc(OC)cc1

Key:
[0.9, 2.7, 0.3, 0.03, 0.01, 0.01, 0.1]

---

Field: MCC at 48 h. Provide a value for each of the compounds that follow.
experimentNotes: Cytotoxicity in HeLa cells, observed microscopically in the antiviral test
Format: cell-based
experimentalParameters: human, hela cells; minimal concentration at which toxic symptoms were observed (cytotoxische Dosis); 2 days at 33°C; read-out: Cytotoxizität

| compound | reportedValue |
| --- | --- |
| COc1ccc(NC(=O)c2c(O)cc(OC)cc2OC)cc1 | > 10 µg/mL |
| COc1cc(O)c(C(=O)NCc2ccc(O)cc2)c(OC)c1 | > 8 µg/mL |

For each entry beneath this line, provide reported MCC at 48 h.
1. CCOC(=O)Oc1cc(OCC)cc(OC)c1C(=O)CCc1ccc(OC)cc1
2. CCCOc1cc(O)c(C(=O)NCc2ccc(OC)cc2)c(OC)c1
3. COc1ccc(CCC(=O)c2c(O)cc(OC(C)C)cc2OC)cc1
4. CCCCCCCCCCCCCCCCCC(=O)Oc1cc(OC)cc(OC)c1C(=O)NCc1ccc(OC)cc1
5. COc1ccc(CCC(=NO)c2c(O)cc(OC)cc2OC)cc1
6. COc1cc(O)c(C(=O)NCC2CCCS2)c(OC)c1 (centres unmarked)
7. COc1ccc(CNC(=O)c2c(O)cc(OCC=C(C)C)cc2OC)cc1

Key:
["8 µg/mL", "> 20 µg/mL", "8 µg/mL", "> 8 µg/mL", "> 10 µg/mL", "8 µg/mL", "> 8 µg/mL"]

For each entry beneath this line, provide reported MCC at 48 h.
1. COc1cccc(CNC(=O)c2c(O)cc(OC)cc2OC)c1
2. COc1cc(O)c(C(=O)NCc2ccc(OC)c(OC)c2)c(OC)c1

Key:
["> 8 µg/mL", "8 µg/mL"]
